Quick reference for Fold IC50 increase relative to wild-type among some binders
Molecular target: HIV-1 JR-CSF Env S334A (HIV-1 isolate JR-CSF) (UniProt P20871)
Assay: cell-based or functional assay
reported-endpoint: Fold IC50 increase relative to wild-type (fold)

[
  {
    "binder": "PGT-131 (antibody, V domains shown) VH: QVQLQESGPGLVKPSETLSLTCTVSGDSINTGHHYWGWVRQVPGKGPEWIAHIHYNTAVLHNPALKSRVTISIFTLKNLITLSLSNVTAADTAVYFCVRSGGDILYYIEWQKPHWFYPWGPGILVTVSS VL: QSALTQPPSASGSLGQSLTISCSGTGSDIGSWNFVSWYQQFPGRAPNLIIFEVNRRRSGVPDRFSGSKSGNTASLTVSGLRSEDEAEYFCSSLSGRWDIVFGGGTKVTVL",
    "reported-endpoint": "Fold IC50 increase relative to wild-type",
    "measured-value": 0.4
  },
  {
    "binder": "PGT-130 (antibody, V domains shown) VH: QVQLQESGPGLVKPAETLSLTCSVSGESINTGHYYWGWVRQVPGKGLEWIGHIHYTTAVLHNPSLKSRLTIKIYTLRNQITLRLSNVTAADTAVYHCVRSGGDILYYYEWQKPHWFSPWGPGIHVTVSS VL: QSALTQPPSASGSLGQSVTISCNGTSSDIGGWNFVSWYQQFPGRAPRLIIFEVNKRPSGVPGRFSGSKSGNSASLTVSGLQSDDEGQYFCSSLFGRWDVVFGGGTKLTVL",
    "reported-endpoint": "Fold IC50 increase relative to wild-type",
    "measured-value": 0.5
  }
]

Provenance of the data: patent US20200024330A1
